Test system: V22 6056 Acinetobacter
Assay: MIC assay, CAMHB with alginate oligomer, no visible growth
Format: cell-based, Acinetobacter lwoffii
Settings: Acinetobacter; Table 5; V22 MDR Acin. lwoff; OligoCF-5/20 0G; read-out: MIC
RESULT TYPE: MIC

Sample records with MIC:
O=C(O)c1cn(C2CC2)c2cc(N3CCNCC3)c(F)cc2c1=O = < 0.25 µg/mL
CC[C@H]1OC(=O)[C@H](C)[C@@H](O[C@H]2C[C@@](C)(OC)[C@@H](O)[C@H](C)O2)[C@H](C)[C@@H](O[C@@H]2O[C@H](C)C[C@H](N(C)C)[C@H]2O)[C@](C)(O)C[C@@H](C)C(=O)[C@H](C)[C@@H](O)[C@]1(C)O = < 0.5 µg/mL

Q. Please report the recorded MIC for `CC[C@H]1OC(=O)[C@H](C)[C@@H](O[C@H]2C[C@@](C)(OC)[C@@H](O)[C@H](C)O2)[C@H](C)[C@@H](O[C@@H]2O[C@H](C)C[C@H](N(C)C)[C@H]2O)[C@](C)(O)C[C@@H](C)CN(C)[C@H](C)[C@@H](O)[C@]1(C)O` .
A. < 0.25 µg/mL

* * *

System: Burkholderia cepacia (LMG18941, ATCC-BAA-246)
Experiment: MIC-assay, Mueller-Hinton broth with G-block alginate, 384-well, OD600
Details: ATCCBAA246|LMG18941, Table 8, G-block (OligoCF-5/20) 10%
RESULT TYPE: MIC

Sample records with MIC:
O=C(O)c1cn(C2CC2)c2cc(N3CCNCC3)c(F)cc2c1=O = > 8 µg/mL
C[C@@H](O)[C@H]1C(=O)N2C(C(=O)O)=C(SCCN=CN)C[C@H]12 = > 16 µg/mL

Q. Please report the recorded MIC for `C[C@H]1[C@H](NC(=O)/C(=N\OC(C)(C)C(=O)O)c2csc(N)n2)C(=O)N1S(=O)(=O)O` .
A. > 16 µg/mL

* * *

System: Acinetobacter baumannii (MDR ACB, Libya, V4)
Assay: MIC-assay, Mueller-Hinton broth with G-block alginate, 384-well, OD600
Settings: Table 9, G-block (OligoCF-5/20) 10%
RESULT TYPE: MIC

C[C@@H](O)[C@H]1C(=O)N2C(C(=O)O)=C(SCCN=CN)C[C@H]12 [Imipenem] = < 2 µg/mL

Batch request: MIC per item, same order as input.
1. CC[C@H]1OC(=O)[C@H](C)[C@@H](O[C@H]2C[C@@](C)(OC)[C@@H](O)[C@H](C)O2)[C@H](C)[C@@H](O[C@@H]2O[C@H](C)C[C@H](N(C)C)[C@H]2O)[C@](C)(O)C[C@@H](C)[C@@H]2N[C@@H](COCCOC)O[C@H]([C@H]2C)[C@]1(C)O [Dirithromycin]
2. CC[C@H]1OC(=O)[C@H](C)[C@@H](O[C@H]2C[C@@](C)(OC)[C@@H](O)[C@H](C)O2)[C@H](C)[C@@H](O[C@@H]2O[C@H](C)C[C@H](N(C)C)[C@H]2O)[C@](C)(O)C[C@@H](C)CN(C)[C@H](C)[C@@H](O)[C@]1(C)O [Azithromycin]

A.
< 1 µg/mL
< 1 µg/mL

* * *

Tested on: Acinetobacter lwoffii (Egypt, V10)
Experiment: MIC-assay, Mueller-Hinton broth with G-block alginate, 384-well, OD600
Conditions: Table 9, G-block (OligoCF-5/20) 10%
RESULT TYPE: MIC

Sample records with MIC:
C[C@@H](O)[C@H]1C(=O)N2C(C(=O)O)=C(SCCN=CN)C[C@H]12 = < 2 µg/mL
CC[C@H]1OC(=O)[C@H](C)[C@@H](O[C@H]2C[C@@](C)(OC)[C@@H](O)[C@H](C)O2)[C@H](C)[C@@H](O[C@@H]2O[C@H](C)C[C@H](N(C)C)[C@H]2O)[C@](C)(O)C[C@@H](C)C(=O)[C@H](C)[C@@H](O)[C@]1(C)O = < 1 µg/mL

Read the next record carefully.
Q. Write down the reported MIC of `CC[C@H]1OC(=O)[C@H](C)[C@@H](O[C@H]2C[C@@](C)(OC)[C@@H](O)[C@H](C)O2)[C@H](C)[C@@H](O[C@@H]2O[C@H](C)C[C@H](N(C)C)[C@H]2O)[C@](C)(O)C[C@@H](C)CN(C)[C@H](C)[C@@H](O)[C@]1(C)O` , test system: Acinetobacter lwoffii (Egypt, V10).
A. < 1 µg/mL

Values compiled from patent US9801901B2.
